assay protocol: Cytotoxicity, Alamar blue assay
Assay type: cell-based
measurement setup: mouse; Raw 264.7 macrophage cells; read-out: Macrophages CC50 ± SD
Procedure: (2010) with little modifications. […] Test plates were incubated for 28 h at 28 °C, followed by the addition of 1 mg/mL resazurin. […] The cytotoxicity profile of the crude extract and compounds was assessed using the Alamar blue assay (Mosman, 1983) against Raw 264.7 macrophage cells.
CC50 listing for selected compounds.

Reference set (4 entries):
| compound | result |
| --- | --- |
| C=C(C)CCC1CC2(CC=C(C)C)C(=O)C(=C(O)c3ccc(O)c(O)c3)C(=O)C(CC=C(C)C)(C2=O)C1(C)CCC=C(C)C (centres unmarked) [Compound 1, guttiferone U] | 28.1 µg/mL |
| COc1cc2c(=O)c3c(O)c4c(c(CC=C(C)C)c3oc2c(O)c1OC)OC(C)(C)C=C4 [Compound 6, gaboxanthone] | > 20 µg/mL |
| CC1(C)C=Cc2c(cc3oc4c(O)c5c(cc4c(=O)c3c2O)C=CC(C)(C)O5)O1 [Compound 8, pyranojacareubin] | > 20 µg/mL |
| COc1cc2c(=O)c3c(O)c4c(c(CC=C(C)C)c3oc2c(O)c1O)OC(C)(C)C=C4 [Compound 7, xanthone V2] | > 20 µg/mL |

Lab note: next compound to report on.
Query string: Given the compound CC(C)=CCCC(C)=CCCC(C)=CCCC1(C)CCC2=C(O1)C(C)(O)C(O)C2=O (centres unmarked) [Compound 4] , what is its reported CC50?
Result string: > 20 µg/mL
